Target: EGFR (A767_dupASV) expressing Ba/F3 stable cell line (Homo sapiens, UniProt P00533, DUP767-769, cells depend on it)
Sequence (P00533 with tags, fused parts or gaps DUP767-769): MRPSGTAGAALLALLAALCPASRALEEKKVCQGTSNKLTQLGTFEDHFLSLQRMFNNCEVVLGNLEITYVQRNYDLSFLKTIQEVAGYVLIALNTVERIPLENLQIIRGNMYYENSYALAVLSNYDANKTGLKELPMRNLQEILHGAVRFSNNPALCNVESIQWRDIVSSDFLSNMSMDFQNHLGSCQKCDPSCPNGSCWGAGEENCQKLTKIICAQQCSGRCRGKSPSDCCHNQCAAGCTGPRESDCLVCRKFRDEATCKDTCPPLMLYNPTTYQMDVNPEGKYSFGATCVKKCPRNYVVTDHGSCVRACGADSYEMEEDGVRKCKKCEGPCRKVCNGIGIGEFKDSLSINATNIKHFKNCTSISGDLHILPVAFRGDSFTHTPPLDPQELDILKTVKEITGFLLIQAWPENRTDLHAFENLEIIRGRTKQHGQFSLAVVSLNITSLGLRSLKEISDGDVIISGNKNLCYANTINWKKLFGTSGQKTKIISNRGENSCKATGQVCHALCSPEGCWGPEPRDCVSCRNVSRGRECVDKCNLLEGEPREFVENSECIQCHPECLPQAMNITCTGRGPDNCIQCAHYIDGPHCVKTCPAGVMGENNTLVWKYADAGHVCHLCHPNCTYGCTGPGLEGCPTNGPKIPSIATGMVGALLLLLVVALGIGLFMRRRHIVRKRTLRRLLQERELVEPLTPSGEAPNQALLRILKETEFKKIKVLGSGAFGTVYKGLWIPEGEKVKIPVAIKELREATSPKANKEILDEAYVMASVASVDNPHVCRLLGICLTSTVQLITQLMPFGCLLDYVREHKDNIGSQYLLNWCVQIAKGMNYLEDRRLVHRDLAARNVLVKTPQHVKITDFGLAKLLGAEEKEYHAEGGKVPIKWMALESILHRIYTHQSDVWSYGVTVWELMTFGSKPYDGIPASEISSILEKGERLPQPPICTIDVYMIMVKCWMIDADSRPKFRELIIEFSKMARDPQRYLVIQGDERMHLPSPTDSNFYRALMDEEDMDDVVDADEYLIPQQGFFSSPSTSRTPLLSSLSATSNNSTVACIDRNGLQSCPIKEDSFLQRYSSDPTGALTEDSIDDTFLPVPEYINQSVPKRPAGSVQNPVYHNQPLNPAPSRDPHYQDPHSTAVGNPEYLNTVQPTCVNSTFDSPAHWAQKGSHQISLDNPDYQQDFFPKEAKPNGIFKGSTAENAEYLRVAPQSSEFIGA
Test: Cellular proliferation (Alamar Blue) assay, EGFR (A767_dupASV) Ba/F3
Type: cell-based
Conditions: 72 hr, read-out: A767 IC50
Procedure: Cell line details: • 1. EGFR(D770_N771insSVD) expressing Ba/F3 stable cell line • 2. EGFR (A767_dupASV) expressing Ba/F3 stable cell line • 3. A431 cells • 4. EGFR (H773insNPH) expressing Ba/F3 stable cell line • 5. HER2 (A775_G776insYVMA) expressing Ba/F3 stable cell line • 1. Seed cells at 5000 for A431 and 15,000 cells for Ba/F3 in 100 μL/well in complete media (for A431: DMEM with 10% FBS and for Ba/F3 cells: RPMI with 10% FBS) in 96-well tissue culture plate. […]
measurement-kind: GI50 (nM)

• C=CC(=O)Nc1ccc(F)c(Nc2nc(Nc3cnn(C)c3)ncc2-c2cc(F)c(F)c(C(F)F)c2)c1 [Compound 141] = 25
• C=CC(=O)Nc1ccc(F)c(Nc2nc(Nc3cnn(C)c3)ncc2-c2ccc(N3CCCOCC3)c(F)c2)c1 [Compound 84] = 101
• C=CC(=O)Nc1ccc(F)c(Nc2nc(Nc3cnn(C)c3)ncc2-c2cc(F)cc(OC(F)F)c2)c1 [Compound 168] = 132
• C=CC(=O)Nc1ccc(F)c(Nc2nc(Nc3cnn(C4COC4)c3)ncc2-c2ccc(Cl)c(Cl)c2)c1 [Compound 56] = 95
• C=CC(=O)Nc1cccc(Nc2nc(Nc3cnn(C)c3)ncc2-c2ccc(F)c(F)c2)c1 [Compound 67] = 41
• C=CC(=O)Nc1ccc(F)c(Nc2nc(Nc3cnn(CCO)c3)ncc2-c2ccc(Cl)c(Cl)c2)c1 [Compound 51] = 56
• C=CC(=O)Nc1ccc(F)c(Nc2nc(Nc3cnn(C)c3)ncc2-c2ccc(N3CCC3)c(F)c2)c1 [Compound 80] = 43

---

Molecular target: HER2 (A775_G776insYVMA) expressing Ba/F3 stable cell line (Homo sapiens, UniProt P04626, DUP772-775, cells depend on it)
Sequence (P04626 with tags, fused parts or gaps DUP772-775): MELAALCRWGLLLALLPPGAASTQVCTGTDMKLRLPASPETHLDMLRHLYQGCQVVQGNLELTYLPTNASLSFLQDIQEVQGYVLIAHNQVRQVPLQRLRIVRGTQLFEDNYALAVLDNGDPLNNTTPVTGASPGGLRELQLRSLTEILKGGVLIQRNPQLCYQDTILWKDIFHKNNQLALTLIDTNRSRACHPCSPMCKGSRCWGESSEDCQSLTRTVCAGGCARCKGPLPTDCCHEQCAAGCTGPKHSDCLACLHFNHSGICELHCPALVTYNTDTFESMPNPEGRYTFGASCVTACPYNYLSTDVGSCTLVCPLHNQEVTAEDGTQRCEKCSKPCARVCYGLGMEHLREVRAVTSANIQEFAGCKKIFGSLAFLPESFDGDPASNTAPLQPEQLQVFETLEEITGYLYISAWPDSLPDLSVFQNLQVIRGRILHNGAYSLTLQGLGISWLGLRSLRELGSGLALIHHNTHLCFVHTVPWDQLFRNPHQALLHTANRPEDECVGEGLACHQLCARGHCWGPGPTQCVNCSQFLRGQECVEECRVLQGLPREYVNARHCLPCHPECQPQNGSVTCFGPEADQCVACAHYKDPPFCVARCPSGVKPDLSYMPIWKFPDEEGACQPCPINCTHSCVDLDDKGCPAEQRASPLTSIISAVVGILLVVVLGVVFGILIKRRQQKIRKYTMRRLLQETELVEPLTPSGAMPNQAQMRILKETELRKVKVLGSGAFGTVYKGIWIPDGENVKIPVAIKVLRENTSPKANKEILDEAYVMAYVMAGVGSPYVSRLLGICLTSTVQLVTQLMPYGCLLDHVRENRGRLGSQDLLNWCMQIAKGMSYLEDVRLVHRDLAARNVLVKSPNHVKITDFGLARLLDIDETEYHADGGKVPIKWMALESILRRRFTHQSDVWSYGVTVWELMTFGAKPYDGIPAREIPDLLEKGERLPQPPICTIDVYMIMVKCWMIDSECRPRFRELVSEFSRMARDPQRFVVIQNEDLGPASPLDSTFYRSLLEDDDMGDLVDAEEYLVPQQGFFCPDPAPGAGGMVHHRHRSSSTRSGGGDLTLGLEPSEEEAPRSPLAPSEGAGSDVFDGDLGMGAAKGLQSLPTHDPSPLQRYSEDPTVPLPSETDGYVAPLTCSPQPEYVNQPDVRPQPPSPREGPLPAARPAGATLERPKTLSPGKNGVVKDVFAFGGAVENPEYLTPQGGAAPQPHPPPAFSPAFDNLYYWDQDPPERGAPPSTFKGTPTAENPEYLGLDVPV
Assay: Cellular proliferation (Alamar Blue) assay, HER2 (A775_G776insYVMA) Ba/F3
Assay type: cell-based
Conditions: HER2 (A775_G776insYVMA) Ba/F3 cells; 72 hr; Alamar Blue; read-out: YVMA IC50
Counter-ions that a name gives are not always drawn.
measurement-kind: GI50 (nM)

* C=CC(=O)Nc1ccc(F)c(Nc2nc(Nc3cn(C)nc3Cl)ncc2-c2cc(F)cc(OC)c2)c1 | 568
* C=CC(=O)Nc1cc(F)cc(Nc2nc(Nc3cnn(C)c3)ncc2-c2cc(F)c(Br)c(Cl)c2)c1 | 104
* C=CC(=O)Nc1ccc(F)c(Nc2nc(Nc3cnn(C)c3)ncc2-c2ccc(F)c(Br)c2)c1 [Compound 18, trifluoroacetate] | 220
* C=CC(=O)Nc1ccc(F)c(Nc2nc(Nc3cnn(C)c3)ncc2-c2ccc(Br)c(F)c2)c1 | 83
* C=CC(=O)Nc1ccc(F)c(Nc2nc(Nc3cn(C)nc3Cl)ncc2-c2ccc(Br)c(F)c2)c1 | 113

---

Molecular target: EGFR(D770_N771insSVD) expressing Ba/F3 stable cell line (Homo sapiens, UniProt P00533, DUP768-770, cells depend on it)
Sequence (P00533 with tags, fused parts or gaps DUP768-770): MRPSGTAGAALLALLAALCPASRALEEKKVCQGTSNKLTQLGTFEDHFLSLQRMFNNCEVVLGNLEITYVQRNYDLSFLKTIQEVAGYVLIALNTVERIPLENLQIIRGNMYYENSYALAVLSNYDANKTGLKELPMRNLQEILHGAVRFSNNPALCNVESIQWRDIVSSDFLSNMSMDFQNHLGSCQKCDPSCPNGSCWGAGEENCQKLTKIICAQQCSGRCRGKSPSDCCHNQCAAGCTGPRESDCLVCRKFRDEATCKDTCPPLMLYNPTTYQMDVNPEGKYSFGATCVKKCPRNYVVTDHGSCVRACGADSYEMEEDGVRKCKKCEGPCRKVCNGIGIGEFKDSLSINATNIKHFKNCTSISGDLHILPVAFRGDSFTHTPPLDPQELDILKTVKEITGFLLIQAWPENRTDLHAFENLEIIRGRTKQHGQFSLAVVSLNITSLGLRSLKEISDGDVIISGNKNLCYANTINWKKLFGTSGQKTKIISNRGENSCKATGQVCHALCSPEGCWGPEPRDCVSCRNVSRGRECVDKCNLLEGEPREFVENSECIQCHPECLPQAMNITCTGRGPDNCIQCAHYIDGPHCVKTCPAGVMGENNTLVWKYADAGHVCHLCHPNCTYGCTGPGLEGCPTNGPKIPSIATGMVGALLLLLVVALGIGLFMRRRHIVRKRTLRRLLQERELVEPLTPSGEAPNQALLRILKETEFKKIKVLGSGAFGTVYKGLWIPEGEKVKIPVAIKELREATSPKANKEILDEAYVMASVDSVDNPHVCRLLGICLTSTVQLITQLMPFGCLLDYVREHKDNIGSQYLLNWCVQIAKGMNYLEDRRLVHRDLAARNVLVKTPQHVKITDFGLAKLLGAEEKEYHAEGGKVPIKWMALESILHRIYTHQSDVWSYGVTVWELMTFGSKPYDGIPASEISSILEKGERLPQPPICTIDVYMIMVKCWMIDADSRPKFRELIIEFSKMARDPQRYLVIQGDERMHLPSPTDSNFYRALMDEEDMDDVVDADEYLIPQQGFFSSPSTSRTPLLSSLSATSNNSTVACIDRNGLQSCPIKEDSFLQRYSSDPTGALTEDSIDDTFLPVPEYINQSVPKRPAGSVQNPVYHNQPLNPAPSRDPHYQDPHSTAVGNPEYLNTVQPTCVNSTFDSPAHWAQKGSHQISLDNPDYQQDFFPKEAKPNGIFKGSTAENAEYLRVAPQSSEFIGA
Test: Cellular proliferation (Alamar Blue) assay, EGFR(D770_N771insSVD) Ba/F3
Type: cell-based
Details: 72 hr, read-out: D770 IC50
measurement-kind: log10(GI50) (log10 of the value in nM)

- C=CC(=O)Nc1ccc(F)c(Nc2nc(Nc3cnn(CCO)c3)ncc2-c2ccc(Br)c(F)c2)c1 [Compound 96]: 1.40
- [2H]C([2H])=CC(=O)Nc1ccc(F)c(Nc2nc(Nc3cnn(C)c3)ncc2-c2cnc(F)c(F)c2)c1 [Compound 103]: 1.40
- C=CC(=O)Nc1ccc(F)c(Nc2nc(Nc3cnn(C)c3)ncc2-c2ccc(Cl)c(Br)c2)c1 [Compound 90]: 2.00
- [2H]C([2H])([2H])Oc1cc(F)cc(-c2cnc(Nc3cnn(C)c3)nc2Nc2cc(NC(=O)C=C)ccc2F)c1 [Compound 165]: 1.85
- [2H]c1c(F)cc(-c2cnc(Nc3cnn(C)c3)nc2Nc2cc(NC(=O)C=C)ccc2F)cc1F [Compound 157]: 1.20
- C=CC(=O)Nc1ccc(F)c(Nc2nc(Nc3cnn(C)c3)ncc2-c2ccc3c(c2)CCN3C)c1 [Compound 59]: 2.48
- CN(C)C/C=C/C(=O)Nc1ccc(F)c(Nc2nc(Nc3cnn(C)c3)ncc2-c2ccc3c(c2)OCC3)c1 [Compound 178]: 2.97
- C=CC(=O)Nc1ccc(F)c(Nc2nc(Nc3cnn(C)c3)ncc2-c2cc(Cl)cc(Cl)c2)c1 [Compound 32]: 2.47
- O=C(O)C(F)(F)F.[2H]C([2H])([2H])n1cc(Nc2ncc(-c3cnc(F)c(F)c3)c(Nc3cc(NC(=O)C=C)ccc3F)n2)cn1 [Compound 101]: 1.18

---

Some compounds, each annotated with its measured GI50.
Target: EGFR (A767_dupASV) expressing Ba/F3 stable cell line (Homo sapiens, UniProt P00533, DUP767-769, cells depend on it)
Assay: Cellular proliferation (Alamar Blue) assay, EGFR (A767_dupASV) Ba/F3
Type: cell-based
Settings: 72 hr, read-out: A767 IC50
measurement-kind: GI50

- C=CC(=O)Nc1ccc(F)c(Nc2nc(Nc3cnn(C)c3)ncc2-c2cc(F)cc(OCC(F)(F)F)c2)c1 [Compound 176]: 0.859 µM
- C=CC(=O)Nc1ccc(F)c(Nc2nc(Nc3cnn(C)c3)ncc2-c2cnc(Cl)c(F)c2)c1 [Compound 45]: 0.01 µM
- C=CC(=O)Nc1ccc(F)c(Nc2nc(Nc3cnn(CCN(C)C)c3)ncc2-c2ccc(Br)c(Cl)c2)c1 [Compound 89]: 0.108 µM
- C=CC(=O)Nc1ccc(F)c(Nc2nc(Nc3cnn(C)c3)ncc2-c2cnc(F)c(C(F)(F)F)c2)c1 [Compound 47]: 0.034 µM
- C=CC(=O)Nc1ccc(F)c(Nc2nc(Nc3cnn(C)c3)ncc2-c2cc(F)c(F)c(F)c2)c1 [Compound 149]: 0.034 µM
- C=CC(=O)Nc1ccc(F)c(Nc2nc(Nc3cnn(C)c3)ncc2-c2ccc(N3CCCC3)c(F)c2)c1 [Compound 77]: 0.113 µM

---

Biological target: EGFR(D770_N771insSVD) expressing Ba/F3 stable cell line (Homo sapiens, UniProt P00533, DUP768-770, cells depend on it)
Assay: Cellular proliferation (Alamar Blue) assay, EGFR(D770_N771insSVD) Ba/F3
Assay type: cell-based
Conditions: 72 hr, read-out: D770 IC50
measurement-kind: GI50 (nM)

• C=CC(=O)Nc1cc(Br)cc(Nc2nc(Nc3cnn(C)c3)ncc2-c2cc(F)cc(C(F)F)c2)c1 = 42
• C=CC(=O)Nc1cccc(Nc2nc(Nc3cnn(C)c3)ncc2-c2cc(F)c(C(F)(F)F)c(F)c2)c1 = 13
• C=CC(=O)Nc1ccc(F)c(Nc2nc(Nc3cnn(C)c3)ncc2-c2ccc(C(F)F)c(F)c2)c1 = 30
• C=CC(=O)Nc1ccc(F)c(Nc2nc(Nc3cnn(C)c3)ncc2-c2cc(F)c(F)c(C(F)F)c2)c1 = 16
• C=CC(=O)Nc1ccc(F)c(Nc2nc(Nc3cnn(C)c3)ncc2-c2cc(F)cc(OC)c2)c1 = 114
• C=C(F)C(=O)Nc1ccc(F)c(Nc2nc(Nc3cnn(C)c3)ncc2-c2ccc(Br)c(F)c2)c1 = 939
• C=CC(=O)Nc1ccc(F)c(Nc2nc(Nc3cnn(C)c3)ncc2-c2cnc(F)c(F)c2)c1 = 8
• C=CC(=O)Nc1ccc(F)c(Nc2nc(Nc3cnn(C)c3)ncc2-c2ccc(OC)c(F)c2)c1 = 36
• C=CC(=O)Nc1ccc(F)c(Nc2nc(Nc3cnn(C)c3)ncc2-c2ccc(OC)cc2F)c1 = 94
• C=CC(=O)Nc1ccc(F)c(Nc2nc(Nc3cnn(C)c3)ncc2-c2cc(F)ccc2Cl)c1 = 194
• CN(C)C/C=C/C(=O)Nc1cccc(Nc2nc(Nc3cnn(C)c3)ncc2-c2cc(F)cc(F)c2)c1 = 126
• C=CC(=O)Nc1ccc(F)c(Nc2nc(Nc3cnn(C)c3)ncc2-c2ccc(N3CCC3)c(F)c2)c1 = 95
• C=CC(=O)Nc1ccc(F)c(Nc2nc(Nc3cnn(C)c3)ncc2-c2cc(C(F)F)cc(C(F)F)c2)c1 = 107

---

Molecular target: EGFR (A767_dupASV) expressing Ba/F3 stable cell line (Homo sapiens, UniProt P00533, DUP767-769, cells depend on it)
Experiment: Cellular proliferation (Alamar Blue) assay, EGFR (A767_dupASV) Ba/F3
Assay type: cell-based
Conditions: 72 hr, read-out: A767 IC50
Where a name gives a salt, the structure may show the parent alone.
measurement-kind: GI50 (nM)

• C=CC(=O)Nc1ccc(F)c(Nc2nc(Nc3cn(C)nc3Cl)ncc2-c2cc(F)cc(C(F)F)c2)c1 = 96
• C=CC(=O)Nc1ccc(F)c(Nc2nc(Nc3cnn(C)c3)ncc2-c2ccc(Cl)c(F)c2)c1 = 21
• C=CC(=O)Nc1ccc(F)c(Nc2nc(Nc3cnn(C)c3)ncc2-c2cc(F)c(F)c(OC(F)F)c2)c1 = 63
• C=CC(=O)Nc1ccc(F)c(Nc2nc(Nc3cnn(C)c3)ncc2-c2cc(F)cc(OC(F)(F)F)c2)c1 = 967
• C=C(F)C(=O)Nc1ccc(F)c(Nc2nc(Nc3cnn(C)c3)ncc2-c2ccc(Br)c(F)c2)c1 = 1730
• [2H]C([2H])=CC(=O)Nc1ccc(F)c(Nc2nc(Nc3cnn(C)c3)ncc2-c2ccc(Br)c(F)c2)c1 = 30
• C=CC(=O)Nc1ccc(F)c(Nc2nc(Nc3cnn(CCO)c3)ncc2-c2ccc(Br)c(F)c2)c1 = 28
• C=CC(=O)Nc1ccc(F)c(Nc2nc(Nc3cnn(CCN(C)C)c3)ncc2-c2ccc(N3CCCCC3)c(F)c2)c1 = 239
• C=CC(=O)Nc1ccc(F)c(Nc2nc(Nc3cnn(C)c3)ncc2-c2cc(F)cc(OC)c2)c1 = 226
• C=CC(=O)Nc1ccc(F)c(Nc2nc(Nc3cnn(C)c3)ncc2-c2ccc(OC)cc2F)c1 = 97
• C=CC(=O)Nc1ccc(F)c(Nc2nc(Nc3cnn(C)c3)ncc2-c2cnc(C(F)(F)F)c(F)c2)c1 = 11
• C=CC(=O)Nc1ccc(F)c(Nc2nc(Nc3cnn(C)c3)ncc2-c2c(F)cccc2OC)c1 = 3090
• C=CC(=O)Nc1ccc(F)c(Nc2nc(Nc3cnn(C)c3)ncc2-c2cc(C(F)F)cc(C(F)F)c2)c1 = 133
• C=CC(=O)Nc1ccc(F)c(Nc2nc(Nc3cnn(C)c3)ncc2-c2cc(F)c(Br)c(F)c2)c1 = 31
• C=CC(=O)Nc1ccc(F)c(Nc2nc(Nc3cnn(C)c3)ncc2-c2ccc(C(F)F)c(F)c2)c1 = 34
• C=CC(=O)Nc1ccc(F)c(Nc2nc(Nc3cnn(C4COC4)c3)ncc2-c2ccc(Br)c(F)c2)c1 = 40
• C=CC(=O)Nc1ccc(F)c(Nc2nc(Nc3cnn(C)c3)ncc2-c2cnc(OC)c(Cl)c2)c1 [Compound 31, trifluoroacetate] = 34
• C=CC(=O)Nc1ccc(F)c(Nc2nc(Nc3cn(C)nc3Cl)ncc2-c2cc(F)cc(F)c2)c1 = 44
• C=CC(=O)Nc1ccc(F)c(Nc2nc(Nc3cnn(C)c3)ncc2-c2cc(F)cc(Cl)c2)c1 = 39
• C=CC(=O)Nc1ccc(F)c(Nc2nc(Nc3cnn(C4CCOC4)c3)ncc2-c2ccc(Br)c(F)c2)c1 (stereo not drawn) = 46

Every entry's value here was drawn from patent US20230416232A1.
